// OD 450 nm lookup, one value per entry
Target: HCV E1E2 antigen, isolate OH8 (hepatitis C virus, isolate OH8)
Test: ELISA, Fab on E1E2 antigen
Enter your answer as a number in OD 450 nm; do not include the unit.

[ask] What does the data say about its OD 450 nm? Entry: Fab V1 (Fab, V domains shown) VH: VQLLEQSGAEVQKPGASVKVSCKPSGYIFTNFGISWVRQAPGQGLEWMAWINTYNGKTTYAQSLQGRVTLTTDPYTNTVFMELRSLRSDDTAVYYCARENEGEYVWGHFRSDYWGQGTLVTVSS VL: ELTQSPSSLSASVGDRVTITCQASQDISNFLNWYQRRPGKAPNLLIYDATHLETGVPSRFSGSGFGTHFTLTINSLQPEDIGTYYCQHFDDVPSFTFGPGTKVDLKR
[reply] 1.35

Turning now to a further record.
[ask] What does the data say about its OD 450 nm? Entry: Fab P6 (Fab, V domains shown) VH: EVQLLESGGGVVQPGKSLTVSCAASGFTFSTFTMHWVRQAPGKWLEWVAVISHDGGTEHYADSVTGRFTISRDNSKNTLHMQMNSLRLEDTAVYFCARGGPAYYLYNDVLTGYYNVVGDFWGQGTLVTVSS VL: ELIQSPGTLFLSSGERATLSCRASQSVSSSNLAWFQHKSGRAPRLLIYGASNRAPDIPDRFSGSGSGTDFTISISRLEPEDFAVYYCQRYGDSPPITFGQGTRLEIKR
[reply] 0.46
